Experiment: in vivo
Conditions: Balb/c, mouse, plasma, iv, 1 mg/kg
Description: Clearance in Balb/c mouse plasma at 1 mg/kg, iv
parameterMeasured: clearance

- molSmiles: "CN1Cc2nc(Nc3cc(C4CC4)c(-c4cccc5c4ncn5C)nc3C(N)=O)ccc2C12CCN(C1COC1)CC2"
  valueReported: "13.2 mL/min/kg"

----------
Assay: in vivo
Conditions: cynomolgus monkey, po, 2 mg/kg
Description: Half life in Cynomolgus monkey at 2 mg/kg, po

- molSmiles: "COc1cc(Nc2ccc3c(n2)CN(C)C32CCN(C3COC3)CC2)c(C(N)=O)nc1-c1cccc2c1ncn2C"
  outputUnit: "h"
  half-life: 8.73

----------
Target: Tyrosine-protein kinase SYK (Homo sapiens, UniProt P43405)
pIC50: −log10 of the molar value.

- molSmiles: "COc1cc(Nc2ccc3c(n2)CN(C)C32CCN(C3COC3)CC2)c(C(N)=O)nc1-c1cccc2c1ncn2C"
  systemName: "Tyrosine-protein kinase SYK (Homo sapiens, UniProt P43405)"
  pIC50: "< 5.00"
